- TARGET_DESC: UniProt Q04609
- Sequence (Q04609 whole entry): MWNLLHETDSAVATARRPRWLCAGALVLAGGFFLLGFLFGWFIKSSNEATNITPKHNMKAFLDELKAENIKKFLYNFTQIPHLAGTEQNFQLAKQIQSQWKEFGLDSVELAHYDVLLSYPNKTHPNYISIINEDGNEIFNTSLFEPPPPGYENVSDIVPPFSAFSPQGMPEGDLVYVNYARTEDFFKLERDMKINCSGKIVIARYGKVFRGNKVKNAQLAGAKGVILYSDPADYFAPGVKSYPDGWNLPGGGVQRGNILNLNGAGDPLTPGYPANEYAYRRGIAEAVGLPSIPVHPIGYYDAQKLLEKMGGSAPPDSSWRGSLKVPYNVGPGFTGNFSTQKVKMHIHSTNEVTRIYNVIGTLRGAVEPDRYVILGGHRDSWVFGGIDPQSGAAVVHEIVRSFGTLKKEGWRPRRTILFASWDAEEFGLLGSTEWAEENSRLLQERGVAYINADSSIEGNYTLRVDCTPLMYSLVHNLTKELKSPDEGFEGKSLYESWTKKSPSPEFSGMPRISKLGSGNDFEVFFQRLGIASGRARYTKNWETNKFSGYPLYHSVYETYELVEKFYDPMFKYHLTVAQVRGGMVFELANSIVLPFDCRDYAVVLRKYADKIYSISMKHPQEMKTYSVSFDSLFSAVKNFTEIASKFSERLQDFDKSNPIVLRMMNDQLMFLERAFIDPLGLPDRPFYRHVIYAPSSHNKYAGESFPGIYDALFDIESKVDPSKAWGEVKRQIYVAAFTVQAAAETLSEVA
- ASSAY_NOTES: IC50 determination: PSMA binding affinity, competition with [125I]XII on LNCaP cells
- PARTICULARS: LNCaP cells (150.000 cells/well); reference [125I]XII c = 0.2 nM; 1 h, 4° C., HBSS add. 1% BSA; mean ± SD (n = 3)
pIC50: −log10 of the molar value. *1 amine or outer side, *2 acyl side, *3 side chain or, on linkers, in order; H or OH if unused. Where a SMILES comes first, the peptide text is derived from it. Side-chain parts run from the residue outwards. [ ]: non-standard residue; d: D form. The star is where a group is joined. X1 = O=C(O)CC[C@H](NC(=O)N[C@@H](CCC(=O)N[C@H](CCCN*)C(=O)O)C(=O)O)C(=O)O; Benzoyl(4-SiFtBu2) = CC(C)(C)[Si](F)(c1ccc(C(=O)*)cc1)C(C)(C)C; dCit = NC(=O)NCCC[C@@H](N)C(=O)O; Suc = O=C(CCC(=O)[*:2])[*:1]; dOrn = NCCC[C@@H](N)C(=O)O; dDap = NC[C@@H](N)C(=O)O
The compounds listed here are annotated with their pIC50.

COMPOUND	pIC50
CC(C)(C)[Si](F)(c1ccc(C(=O)NC[C@@H](NC(=O)[C@@H](CCCNC(N)=O)NC(=O)[C@@H](CCC(=O)O)NC(=O)[C@H](N)CCC(=O)O)C(=O)N[C@H](CCCCNC(=O)CCC(=O)NCCC[C@@H](NC(=O)CC[C@H](NC(=O)N[C@@H](CCC(=O)O)C(=O)O)C(=O)O)C(=O)O)C(=O)O)cc1)C(C)(C)C [SiFA-PSMA ligand 03 c] (H-[dE][dE][dCit][dDap](Benzoyl(4-SiFtBu2))[dK]([Suc-X1])-OH)	7.93
CC(C)(C)[Si](F)(c1ccc(C(=O)NC[C@@H](NC(=O)CCCCCNC(=O)CC[C@H](NC(=O)N[C@@H](CCC(=O)O)C(=O)O)C(=O)O)C(=O)N[C@H](CCCCNC(=O)CCC(=O)NCCC[C@@H](NC(=O)CC[C@H](NC(=O)N[C@@H](CCC(=O)O)C(=O)O)C(=O)O)C(=O)O)C(=O)O)cc1)C(C)(C)C [SiFA-PSMA ligand 02 c]	8.23
CC(C)(C)[Si](F)(c1ccc(C(=O)NC[C@@H](NC(=O)[C@@H](CN)NC(=O)[C@@H](CCC(=O)O)NC(=O)[C@H](N)CCC(=O)O)C(=O)N[C@H](CCCCNC(=O)CCC(=O)NCCC[C@@H](NC(=O)CC[C@H](NC(=O)N[C@@H](CCC(=O)O)C(=O)O)C(=O)O)C(=O)O)C(=O)O)cc1)C(C)(C)C [SiFA-PSMA ligand 03 d] (H-[dE][dE][dDap][dDap](Benzoyl(4-SiFtBu2))[dK]([Suc-X1])-OH)	8.04
C[C@H](O)[C@@H](NC(=O)[C@@H](CCC(=O)O)NC(=O)[C@H](N)CCC(=O)O)C(=O)N[C@H](CNC(=O)c1ccc([Si](F)(C(C)(C)C)C(C)(C)C)cc1)C(=O)N[C@H](CCCCNC(=O)CCC(=O)NCCC[C@@H](NC(=O)CC[C@H](NC(=O)N[C@@H](CCC(=O)O)C(=O)O)C(=O)O)C(=O)O)C(=O)O [SiFA-PSMA ligand 03 h] (H-[dE][dE][dT][dDap](Benzoyl(4-SiFtBu2))[dK]([Suc-X1])-OH)	7.97
C[C@H](O)[C@@H](NC(=O)CC[C@H](NC(=O)N[C@@H](CCC(=O)O)C(=O)O)C(=O)O)C(=O)N[C@H](CNC(=O)c1ccc([Si](F)(C(C)(C)C)C(C)(C)C)cc1)C(=O)N[C@H](CCCCNC(=O)CCC(=O)NCCC[C@@H](NC(=O)CC[C@H](NC(=O)N[C@@H](CCC(=O)O)C(=O)O)C(=O)O)C(=O)O)C(=O)O [SiFA-PSMA ligand 01 j]	8.04
CC(C)(C)[Si](F)(c1ccc(C(=O)NC[C@@H](NC(=O)[C@@H](CCC(=O)O)NC(=O)[C@@H](CCC(=O)O)NC(=O)[C@H](N)CCC(=O)O)C(=O)N[C@H](CCCCNC(=O)CCC(=O)NCCC[C@@H](NC(=O)CC[C@H](NC(=O)N[C@@H](CCC(=O)O)C(=O)O)C(=O)O)C(=O)O)C(=O)O)cc1)C(C)(C)C [SiFA-PSMA ligand 03 b] (H-[dE][dE][dE][dDap](Benzoyl(4-SiFtBu2))[dK]([Suc-X1])-OH)	8.06
CC(C)(C)[Si](F)(c1ccc(C(=O)NC[C@@H](NC(=O)[C@@H](CCCN)NC(=O)[C@@H](CCC(=O)O)NC(=O)[C@H](N)CCC(=O)O)C(=O)N[C@H](CCCCNC(=O)CCC(=O)NCCC[C@@H](NC(=O)CC[C@H](NC(=O)N[C@@H](CCC(=O)O)C(=O)O)C(=O)O)C(=O)O)C(=O)O)cc1)C(C)(C)C [SiFA-PSMA ligand 03 e] (H-[dE][dE][dOrn][dDap](Benzoyl(4-SiFtBu2))[dK]([Suc-X1])-OH)	8.07
CC(C)(C)[Si](F)(c1ccc(C(=O)NC[C@@H](NC(=O)[C@H](CCC(=O)O)NC(=O)CC[C@H](NC(=O)N[C@@H](CCC(=O)O)C(=O)O)C(=O)O)C(=O)N[C@H](CCCCNC(=O)CCC(=O)NCCC[C@@H](NC(=O)CC[C@H](NC(=O)N[C@@H](CCC(=O)O)C(=O)O)C(=O)O)C(=O)O)C(=O)O)cc1)C(C)(C)C [SiFA-PSMA ligand 01 c]	7.77
CC(C)(C)[Si](F)(c1ccc(C(=O)NC[C@@H](NC(=O)[C@@H](CCCN)NC(=O)CC[C@H](NC(=O)N[C@@H](CCC(=O)O)C(=O)O)C(=O)O)C(=O)N[C@H](CCCCNC(=O)CCC(=O)NCCC[C@@H](NC(=O)CC[C@H](NC(=O)N[C@@H](CCC(=O)O)C(=O)O)C(=O)O)C(=O)O)C(=O)O)cc1)C(C)(C)C [SiFA-PSMA ligand 01 f]	8.08
CC(C)(C)[Si](F)(c1ccc(C(=O)NC[C@@H](NC(=O)[C@@H](CC(=O)O)NC(=O)CC[C@H](NC(=O)N[C@@H](CCC(=O)O)C(=O)O)C(=O)O)C(=O)N[C@H](CCCCNC(=O)CCC(=O)NCCC[C@@H](NC(=O)CC[C@H](NC(=O)N[C@@H](CCC(=O)O)C(=O)O)C(=O)O)C(=O)O)C(=O)O)cc1)C(C)(C)C [SiFA-PSMA ligand 01 a]	8.11

# credit: patent US12576169B2
